# test.summary: Hepatocyte Stability Assay, human hepatocytes
# Format: in vitro ADME
# settings: human hepatocytes, 120 min
measurement.name: Hepatocyte Stability Human % rem. 120 min

[
  {
    "compound": "Cn1c(=O)n(C2CCOCC2)c2nc(N[C@H]3CC[C@@H](Oc4nc(N5CCOCC5)cc5ncccc45)CC3)ncc21 [Compound 96]",
    "obs.value": "F (% remaining = 25-50%)"
  },
  {
    "compound": "O=C(Cn1c(=O)n(C2CCOCC2)c2nc(N[C@H]3CC[C@@H](Oc4nc(N5CCOCC5)cc5ncccc45)CC3)ncc21)N1CCOCC1 [Compound 98]",
    "obs.value": "F (% remaining = 25-50%)"
  }
]

====

# experimental.system: DNA-PK (Homo sapiens)
# Construct: purchased Invitrogen PR9107A
# test.summary: DNA-PK Assay for Biochemical Enzymatic Inhibition (ADP Glo Kinase assay)
# settings: DNA-PK enzyme, Table 1
pIC50: −log10 of the molar value.
Recorded pIC50, one value per entry.

These recorded examples may help you get a feel for the data.
[
  {
    "compound": "N#CCC(=O)N[C@H]1CC[C@@H](Oc2nc(N3CCOCC3)cc3ncccc23)CC1",
    "experimental.system": "DNA-PK (Homo sapiens)",
    "pIC50": "8.00 to 9.00"
  },
  {
    "compound": "O=S(=O)(CC(F)F)Nc1cnc2cc(N3CCOCC3)nc(O[C@H]3CC[C@@H](Nc4ncccn4)CC3)c2c1",
    "experimental.system": "DNA-PK (Homo sapiens)",
    "pIC50": "9.00 to 9.30"
  },
  {
    "compound": "O=S(=O)(Nc1cnc2cc(N3CCOCC3)nc(O[C@H]3CC[C@@H](Nc4ncccn4)CC3)c2c1)C1CCCC1",
    "experimental.system": "DNA-PK (Homo sapiens)",
    "pIC50": "6.82 to 8.00"
  }
]

--- query ---
Task: pIC50 lookup needed for COCC(=O)N[C@H]1CC[C@@H](Oc2nc(N3CCOCC3)cc3ncccc23)CC1 , thanks.
Output: 8.00 to 9.00

====

# test.summary: Microsomal Stability Assay, mouse liver microsomes
# Format: in vitro ADME
# settings: male, CD-1, pH 7.4; mouse liver microsomes; Example 11
measurement.name: microsomal CLint at 0.1 uM

Examples with their reported microsomal CLint at 0.1 uM follow.
[
  {
    "compound": "CN(C)C(=O)COc1cnc(N[C@H]2CC[C@@H](Oc3nc(N4CCOCC4)cc4ncc(OCc5cnc([N+](=O)[O-])n5C)cc34)CC2)nc1",
    "obs.value": "> 116 µL/min/mg"
  },
  {
    "compound": "CN(C)C(=O)COc1cnc(N[C@H]2CC[C@@H](Oc3nc(N4CCOCC4)cc4ncc(O)cc34)CC2)nc1",
    "obs.value": "< 116 µL/min/mg"
  }
]

Task: Value lookup for microsomal CLint at 0.1 uM; key = CN(C)C(=O)COc1cnc(N[C@H]2CC[C@@H](Oc3nc(N4CCOCC4)cc4ncc(N)cc34)CC2)nc1
Output: < 116 µL/min/mg

Task: Please look up its microsomal CLint at 0.1 uM: Cn1c(CN(c2cnc3cc(N4CCOCC4)nc(OC4CCC(NC(=O)c5ncccn5)CC4)c3c2)S(C)(=O)=O)cnc1[N+](=O)[O-] (stereo not shown)
Output: < 116 µL/min/mg

====

# test.summary: Pharmacokinetic study in male Sprague-Dawley rats (IV and PO), plasma
# Format: in vivo, rat
# settings: male, Sprague-Dawley; rat plasma, IV, 3 mg/kg; read-out: AUCINF—obs
measurement.name: AUC(0-inf) (ng·h/mL)

[
  {
    "mol": "CN(C)C(=O)Cn1ccc2nc(N[C@H]3CC[C@@H](Oc4nc(N5CCOCC5)cc5ncccc45)CC3)ncc21",
    "measurement.name": "AUC(0-inf)",
    "reading.unit": "ng·h/mL",
    "obs.value": 374
  }
]

[P] O=C(COc1cnc(N[C@H]2CC[C@@H](Oc3nc(N4CCOCC4)cc4ncccc34)CC2)nc1)N1CCOCC1
[Q] CN1CCN(CCOc2cnc(N[C@H]3CC[C@@H](Oc4nc(N5CCOCC5)cc5ncccc45)CC3)nc2)CC1
Task: I'm curious, which of these has a smaller AUC(0-inf) number: P or Q ? Please reply using the label of the selected record.
Output: Q
(Q: 501 ng·h/mL, P: 913 ng·h/mL)

====

# System: pH2AX induction in HCT116 ATM-/- multicellular tumour spheroids
# test.summary: Prodrug Radiation Sensitization in Multicellular Tumour Spheroids, inhibition of pH2AX induction following radiation
# Format: cell-based
# settings: Homo sapiens, HCT-116, 20 Gy, 5% O2, inner layers, read-out: Prodrug 5% O2 Inner layers EC50
# Procedure: Prodrug compounds were assayed to determine their potency in 3D multicellular spheroids in media maintained under 20% vs 5% oxygen. Multicellular tumour spheroids were grown to approximately 0.5 mm in diameter and irradiated with 20 Gy in combination with inhibitor test compounds to determine their potency using HCT 116 and FaDu cell lines. Experiments were carried out in 96 well plates containing 0.7 mls of MEM media containing 10% FBS and 10 mM glucose under 5% CO2 at 37° C. […]
pEC50: −log10 of the molar value.
Items are presented alongside their recorded pEC50.

Worked set:
[
  {
    "compound": "CN(C)C(=O)COc1cnc(N[C@H]2CC[C@@H](Oc3nc(N4CCOCC4)cc4ncc(OCc5cnc([N+](=O)[O-])n5C)cc34)CC2)nc1 [LFA114]",
    "measurement.name": "pEC50",
    "obs.value": "6.30 to 8.00"
  },
  {
    "compound": "CC(c1cnc([N+](=O)[O-])n1C)N(c1cnc2cc(N3CCOCC3)nc(O[C@H]3CC[C@@H](Nc4ncc(OCCN(C)C)cn4)CC3)c2c1)S(C)(=O)=O (stereo partly drawn) [LFA2061]",
    "measurement.name": "pEC50",
    "obs.value": "6.00 to 6.30"
  },
  {
    "compound": "CC(c1cnc([N+](=O)[O-])n1C)N(c1cnc2cc(N3CCOCC3)nc(O[C@H]3CC[C@@H](Nc4ncc(CN5CCOCC5)cn4)CC3)c2c1)S(C)(=O)=O (stereo partly drawn) [LFA2053]",
    "measurement.name": "pEC50",
    "obs.value": "6.30 to 8.00"
  },
  {
    "compound": "CN1CCN(c2cnc(N[C@H]3CC[C@@H](Oc4nc(N5CCOCC5)cc5ncc(N(Cc6cnn(C)c6[N+](=O)[O-])S(C)(=O)=O)cc45)CC3)nc2)CC1 [LFA2072]",
    "measurement.name": "pEC50",
    "obs.value": "6.30 to 8.00"
  },
  {
    "compound": "Cn1c(COc2cnc3cc(N4CCOCC4)nc(O[C@H]4CC[C@@H](Nc5ncc(OCCN6CCOCC6)cn5)CC4)c3c2)cnc1[N+](=O)[O-] [LFA2069]",
    "measurement.name": "pEC50",
    "obs.value": "6.30 to 8.00"
  }
]

Task: # lookup: pEC50 of Cc1cc(C)nc(N[C@H]2CC[C@@H](Oc3nc(N4CCOCC4)cc4ncc(OC(C)c5cnc([N+](=O)[O-])n5C)cc34)CC2)n1 (stereo partly drawn) [LFA2082]
Output: 6.30 to 8.00

Task: Look up pEC50: Cn1c(COc2cnc3cc(N4CCOCC4)nc(O[C@H]4CC[C@@H](NC(=O)c5ncccn5)CC4)c3c2)cnc1[N+](=O)[O-] [LFA116]
Output: 6.30 to 8.00

Task: Query: pEC50; subject: CC(c1cnn(C)c1[N+](=O)[O-])N(c1cnc2cc(N3CCOCC3)nc(O[C@H]3CC[C@@H](Nc4ncc(C#N)cn4)CC3)c2c1)S(C)(=O)=O (stereo partly drawn) [LFA2052]
Output: 6.30 to 8.00

Task: Quick one: pEC50 for CC(c1cnc([N+](=O)[O-])n1C)N(c1cnc2cc(N3CCOCC3)nc(O[C@H]3CC[C@@H](Nc4nccnc4C#N)CC3)c2c1)S(C)(=O)=O (stereo partly drawn) [LFA2100] ?
Output: 6.30 to 8.00

Task: I have this compound here, Cc1ccc(N[C@H]2CC[C@@H](Oc3nc(N4CCOCC4)cc4ncc(OC(C)c5cnc([N+](=O)[O-])n5C)cc34)CC2)nc1 (stereo partly drawn) [LFA2105] , and I need its recorded pEC50.
Output: 5.00 to 6.00

Task: Look up pEC50: Cc1cc(C)nc(N[C@H]2CC[C@@H](Oc3nc(N4CCOCC4)cc4ncc(OCc5cnc([N+](=O)[O-])n5C)cc34)CC2)n1 [LFA2081]
Output: 6.00 to 6.30

Task: Fill in the blank: the reported pEC50 of Cn1c(CN(c2cnc3cc(N4CCOCC4)nc(OC4CCC(Nc5ncc(N6CCN(CC(F)(F)F)CC6)cn5)CC4)c3c2)S(C)(=O)=O)cnc1[N+](=O)[O-] (stereo not drawn) [LFA2045] is ____.
Output: 5.00 to 6.00
